Recorded values, source patent US11096985B2.

Tested on: clinical strains of Pseudomonas aeruginosa
PROTOCOL DESCRIPTION: MIC, clinical strains of P. aeruginosa
Format: cell-based
Set-up: unit: μg/ml
RECORDED CONDITIONS: Pseudomonas aeruginosa clinical strain 3; microdilution, Muller Hinton broth-cation adjusted, 0.02% BSA, 0.2% acetic acid
Method: Minimum inhibition concentrations (MICs) were determined against Escherichia coli (ATCC 25922), Staphylococcus aureus (ATCC 25923), Klebsiella pneumoniae (ATCC 10031) and Pseudomonas aeruginosa (ATCC 27853). […] The susceptibility of these microorganisms to Chain peptides were determined using micro broth dilution assay. […] Concentrations of Chain peptides and reference antibiotics ranged from 0.125 to 128 μg/ml and the MICs were recorded as the lowest concentration with no visual growth of bacteria. […]
Where a SMILES comes first, the peptide text is derived from it. [ ]: non-standard residue; d: D form.
EXPERIMENTAL ENDPOINT: Minimum inhibitory concentration

MOLECULE	Minimum inhibitory concentration
CC(C)C[C@@H](NC(=O)[C@H](N)CCCCN)C(=O)N[C@H](CCCCN)C(=O)N[C@H](Cc1c[nH]c2ccccc12)C(=O)N[C@H](Cc1ccccc1)C(=O)N[C@H](Cc1c[nH]c2ccccc12)C(=O)N[C@H](CC(C)C)C(=O)N[C@H](Cc1ccccc1)C(=O)N[C@H](CCCCN)C(=O)N[C@H](CCCCN)C(=O)N[C@H](CCCNC(=N)N)C(=O)O [Chain311D] (H-[dK][dL][dK][dW][dF][dW][dL][dF][dK][dK][dR]-OH)	16
CC[C@@H](C)[C@@H](N)C(=O)N[C@H](Cc1c[nH]c2ccccc12)C(=O)N[C@H](CCCCN)C(=O)N[C@H](CCCNC(=N)N)C(=O)N[C@H](Cc1ccccc1)C(=O)N[C@H](CCCNC(=N)N)C(=O)N[C@H](CC(C)C)C(=O)N[C@H](Cc1ccccc1)C(=O)N[C@H](CCCCN)C(=O)N[C@H](CCCCN)C(=O)N[C@H](Cc1c[nH]c2ccccc12)C(=O)O [Chain304D] (H-[dI][dW][dK][dR][dF][dR][dL][dF][dK][dK][dW]-OH)	64

Query block: Quick one: Minimum inhibitory concentration for CC(C)C[C@@H](NC(=O)[C@@H](CCCCN)NC(=O)[C@@H](CCCCN)NC(=O)[C@@H](Cc1ccccc1)NC(=O)[C@@H](CC(C)C)NC(=O)[C@@H](Cc1c[nH]c2ccccc12)NC(=O)[C@@H](CCCNC(=N)N)NC(=O)[C@@H](Cc1c[nH]c2ccccc12)NC(=O)[C@@H](CCCCN)NC(=O)[C@@H](CCCNC(=N)N)NC(=O)[C@H](N)CCCCN)C(=O)O [Chain310D] (H-[dK][dR][dK][dW][dR][dW][dL][dF][dK][dK][dL]-OH) ?
Result block: 16

----------
System: clinical strains of Escherichia coli
PROTOCOL DESCRIPTION: MIC, clinical strains of E. coli
Assay type: cell-based
Design: unit: μg/ml
RECORDED CONDITIONS: Escherichia coli clinical strain 2; microdilution, Muller Hinton broth-cation adjusted, 0.02% BSA, 0.2% acetic acid
Where a SMILES comes first, the peptide text is derived from it. [ ]: non-standard residue; d: D form.
EXPERIMENTAL ENDPOINT: Minimum inhibitory concentration

Past entries and their recorded results:
COMPOUND	Minimum inhibitory concentration
CC[C@@H](C)[C@@H](NC(=O)[C@@H](CC(C)C)NC(=O)[C@@H](CCCNC(=N)N)NC(=O)[C@H](N)CCCNC(=N)N)C(=O)N[C@H](Cc1c[nH]c2ccccc12)C(=O)N[C@H](CCCNC(=N)N)C(=O)N[C@H](CCCNC(=N)N)C(=O)N[C@H](Cc1ccccc1)C(=O)N[C@H](CCCCN)C(=O)N[C@H](Cc1c[nH]c2ccccc12)C(=O)N[C@H](CC(C)C)C(=O)N[C@H](CCCNC(=N)N)C(=O)O [Chain204D] (H-[dR][dR][dL][dI][dW][dR][dR][dF][dK][dW][dL][dR]-OH)	1
CC(C)C[C@@H](NC(=O)[C@H](N)CCCNC(=N)N)C(=O)N[C@H](CCCCN)C(=O)N[C@H](Cc1c[nH]c2ccccc12)C(=O)N[C@H](Cc1ccccc1)C(=O)N[C@H](Cc1c[nH]c2ccccc12)C(=O)N[C@H](CC(C)C)C(=O)N[C@H](Cc1ccccc1)C(=O)N[C@H](CCCNC(=N)N)C(=O)N[C@H](CCCCN)C(=O)N[C@H](CCCNC(=N)N)C(=O)O [Chain307D] (H-[dR][dL][dK][dW][dF][dW][dL][dF][dR][dK][dR]-OH)	4
CC(C)C[C@@H](NC(=O)[C@@H](Cc1c[nH]c2ccccc12)NC(=O)[C@@H](Cc1ccccc1)NC(=O)[C@@H](Cc1c[nH]c2ccccc12)NC(=O)[C@@H](CCCCN)NC(=O)[C@@H](CCCNC(=N)N)NC(=O)[C@H](N)Cc1c[nH]c2ccccc12)C(=O)N[C@H](Cc1ccccc1)C(=O)N[C@H](CCCCN)C(=O)N[C@H](CCCCN)C(=O)N[C@H](CCCNC(=N)N)C(=O)O [Chain309D] (H-[dW][dR][dK][dW][dF][dW][dL][dF][dK][dK][dR]-OH)	32

Could you now look at the following compound, please?
Query block: Quick one: Minimum inhibitory concentration for CC(C)C[C@@H](NC(=O)[C@@H](CCCCN)NC(=O)[C@@H](CCCCN)NC(=O)[C@@H](Cc1ccccc1)NC(=O)[C@@H](CC(C)C)NC(=O)[C@@H](Cc1c[nH]c2ccccc12)NC(=O)[C@@H](CCCNC(=N)N)NC(=O)[C@@H](Cc1c[nH]c2ccccc12)NC(=O)[C@@H](CCCCN)NC(=O)[C@@H](CCCNC(=N)N)NC(=O)[C@H](N)CCCCN)C(=O)O [Chain310D] (H-[dK][dR][dK][dW][dR][dW][dL][dF][dK][dK][dL]-OH) ?
Result block: 32

----------
Tested on: clinical strains of Candida albicans
PROTOCOL DESCRIPTION: MIC, clinical yeast strains, Candida albicans
Format: cell-based
Design: unit: μg/ml
RECORDED CONDITIONS: Candida albicans clinical yeast strain 1
Where a SMILES comes first, the peptide text is derived from it. [ ]: non-standard residue; d: D form.
Kindly supply the reported Minimum inhibitory concentration values for the records listed here.
Answers are plain numbers.

Past entries and their recorded results:
COMPOUND	Minimum inhibitory concentration
CC(C)C[C@@H](NC(=O)[C@@H](CCCCN)NC(=O)[C@@H](Cc1c[nH]c2ccccc12)NC(=O)[C@@H](CCCCN)NC(=O)[C@@H](C)NC(=O)[C@@H](Cc1c[nH]cn1)NC(=O)[C@@H](CC(C)C)NC(=O)[C@@H](CCCNC(=N)N)NC(=O)[C@@H](Cc1c[nH]c2ccccc12)NC(=O)[C@H](N)Cc1c[nH]c2ccccc12)C(=O)N[C@H](Cc1c[nH]c2ccccc12)C(=O)O [Chain109D] (H-[dW][dW][dR][dL][dH][dA][dK][dW][dK][dL][dW]-OH)	128
CC[C@@H](C)[C@@H](NC(=O)[C@@H](Cc1c[nH]c2ccccc12)NC(=O)[C@H](N)CCCCN)C(=O)N[C@@H](C(=O)N[C@H](Cc1c[nH]c2ccccc12)C(=O)N[C@H](CCCNC(=N)N)C(=O)N[C@H](Cc1c[nH]c2ccccc12)C(=O)N[C@H](CCCNC(=N)N)C(=O)N[C@H](Cc1ccccc1)C(=O)N[C@H](CCCCN)C(=O)N[C@H](CCCNC(=N)N)C(=O)O)C(C)C [Chain201D] (H-[dK][dW][dI][dV][dW][dR][dW][dR][dF][dK][dR]-OH)	16
CC(C)C[C@@H](NC(=O)[C@H](N)CCCNC(=N)N)C(=O)N[C@H](CCCCN)C(=O)N[C@H](Cc1c[nH]c2ccccc12)C(=O)N[C@H](Cc1ccccc1)C(=O)N[C@H](CC(C)C)C(=O)N[C@H](CC(C)C)C(=O)N[C@H](Cc1ccccc1)C(=O)N[C@H](CCCNC(=N)N)C(=O)N[C@H](CCCCN)C(=O)N[C@H](CCCNC(=N)N)C(=O)O [Chain308D] (H-[dR][dL][dK][dW][dF][dL][dL][dF][dR][dK][dR]-OH)	16
C[C@@H]1[C@H](O)[C@@H](C)/C=C/C=C/C=C/C=C/C=C/C=C/C=C/[C@H](O[C@@H]2O[C@H](C)[C@@H](O)[C@H](N)[C@@H]2O)C[C@@H]2O[C@](O)(C[C@@H](O)C[C@@H](O)[C@H](O)CC[C@@H](O)C[C@@H](O)CC(=O)O[C@H]1C)C[C@H](O)[C@H]2C(=O)O [Amphotericin B, reference compound]	2

Could you now look at the following compound, please?
Query block: Quick one: Minimum inhibitory concentration for CC(C)C[C@@H](NC(=O)[C@@H](Cc1c[nH]c2ccccc12)NC(=O)[C@@H](Cc1ccccc1)NC(=O)[C@@H](Cc1c[nH]c2ccccc12)NC(=O)[C@@H](CCCCN)NC(=O)[C@@H](CCCNC(=N)N)NC(=O)[C@H](N)Cc1c[nH]c2ccccc12)C(=O)N[C@H](Cc1ccccc1)C(=O)N[C@H](CCCCN)C(=O)N[C@H](CCCCN)C(=O)N[C@H](CCCNC(=N)N)C(=O)O [Chain309D] (H-[dW][dR][dK][dW][dF][dW][dL][dF][dK][dK][dR]-OH) ?
Result block: 32
